The reported measurements were obtained from patent US6514965B1.

Reported melting point values for a set of compounds

COc1cc2c(cc1Br)CCC(C(=O)OC(C)(C)C)C(=O)N2 (racemic)
207 to 208 °C
CCOC(=O)C1CCc2ccc(OC)cc2NC1=O (racemic)
89 to 91 °C
CCN1C(=O)C(C(=O)O)CCc2ccc(OC)cc21 (racemic)
120 to 121 °C
CCN1C(=O)C(C(=O)OC(C)(C)C)CCc2ccc(OC)cc21 (racemic)
132 to 133 °C
CCN1C(=O)C(C(=O)OC(C)(C)C)C=Cc2ccc(OC)cc21 (racemic)
173 to 174 °C

query: Which melting point value belongs to CCN1C(=O)C(C(=O)OC(C)(C)C)CCc2cc(Br)c(OC)cc21 (racemic) ?
result: 131 to 132 °C

query: Which melting point value belongs to O=C1CCCc2ccc(O)cc2N1 ?
result: 226 to 227 °C

query: Which melting point value belongs to CCN1C(=O)CCCc2cc(Br)c(OC)cc21 ?
result: 133 to 135 °C

query: Which melting point value belongs to COc1cc2c(cc1Br)CCCC(=O)N2 ?
result: 180 to 182 °C

query: Which melting point value belongs to COc1ccc2c(c1)NC(=O)CCC2 ?
result: 105 to 106 °C

query: Which melting point value belongs to CCN1C(=O)C(C(=O)OC(C)(C)C)CCc2cc(N3CCNCC3)c(OC)cc21 (racemic) ?
result: 165 °C (dec.)
